Test system: 945468-187-T-J3-PDC spheroids with HUVEC/MSC, viability;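 note: spheroids exposed to agents for 7 days before viability read; 100% = DMSO vehicle control viability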
TEST DESCRIPTION: Anticancer human tumor 945468-187-T-J3-PDC patient-derived rectal carcinoma cell line growth inhibition [PI3K]
CONDITION DETAILS: second compound 0.01 µM; first compound 0.1 µM; hits give low values
ASSAY METRIC: viability, T/C (%)
Write the value in % as a bare number.

Query block: For CCCS(=O)(=O)Nc1ccc(F)c(C(=O)c2c[nH]c3ncc(-c4ccc(Cl)cc4)cc23)c1F + CC(Nc1ccc2c(c1)OCCn1cc(N3C(=O)OCC3C(F)F)nc1-2)C(N)=O , what is its reported viability, T/C?
Result block: 88.7

Query block: For CC(Cn1ccc(-c2ccc(C#N)c(Cl)c2)n1)NC(=O)c1cc(C(C)O)[nH]n1 (stereo not drawn) + CC(Nc1ccc2c(c1)OCCn1cc(N3C(=O)OCC3C(F)F)nc1-2)C(N)=O , what is its reported viability, T/C?
Result block: 104

Query block: For CC(=O)c1c(C)c2cnc(Nc3ccc(N4CCNCC4)cn3)nc2n(C2CCCC2)c1=O + COc1c(OCCCN2CCOCC2)ccc2c3n(c(=NC(=O)c4cnc(N)nc4)nc12)CCN3 , what is its reported viability, T/C?
Result block: 104
